# assay_target: T1, human DLL4 extracellular domain (human, UniProt Q9NR61 27-529)
# T1 construct: purified recombinant ECD; biotin-labelled or 6xHis-tagged depending on the assay; also called huDLL4 ECD; hu DLL4 ECD
# T1 sequence (Q9NR61 27-529 limits assumed): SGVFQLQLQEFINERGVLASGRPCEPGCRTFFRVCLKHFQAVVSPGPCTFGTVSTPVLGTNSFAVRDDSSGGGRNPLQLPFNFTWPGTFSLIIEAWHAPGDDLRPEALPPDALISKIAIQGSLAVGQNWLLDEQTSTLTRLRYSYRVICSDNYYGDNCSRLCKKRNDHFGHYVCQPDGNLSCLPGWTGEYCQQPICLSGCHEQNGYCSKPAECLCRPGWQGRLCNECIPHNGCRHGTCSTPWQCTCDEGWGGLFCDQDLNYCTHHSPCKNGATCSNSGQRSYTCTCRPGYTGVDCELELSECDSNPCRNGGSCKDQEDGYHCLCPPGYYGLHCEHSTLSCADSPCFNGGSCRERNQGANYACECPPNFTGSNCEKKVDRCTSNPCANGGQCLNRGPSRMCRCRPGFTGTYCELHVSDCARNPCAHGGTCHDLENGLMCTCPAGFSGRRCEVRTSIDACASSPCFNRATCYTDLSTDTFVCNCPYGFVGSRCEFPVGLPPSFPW
# measurement_description: SPR (Biacore)

[
  {
    "binder": "h1A11.A8 (antibody, V domains shown, also called h1A11.A8 VH / h1A11VL.1) VH: EVQLVESGGGLVQPGGSLRLSCAASGFTFGNFPMSWVRQAPGKGLEWVASISSSDSWATIGDSVKGRFTISRDNAKNSLYLQMNSLRAEDTAVYYCSRGYYNSPFAYWGQGTLVTVSS VL: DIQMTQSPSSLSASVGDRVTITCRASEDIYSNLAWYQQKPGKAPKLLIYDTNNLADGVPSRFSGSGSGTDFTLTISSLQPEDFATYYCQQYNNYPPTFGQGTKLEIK",
    "kon": "174000 M⁻¹ s⁻¹"
  }
]
